Just for reference, ChEMBL document CHEMBL3885861 is where these values come from.

- Species: Rattus norvegicus
- ASSAY_NAME: Open TG-GATES - Regimen: Single
- Format: toxicity, organism-based, Sprague-Dawley
- Set-up: regimen Single, gender Male, age 6 weeks
- EXPERIMENTAL_SETUP: in vivo, po, 0 mg/kg, 6 h, tissue Plasma, route gavage, dose level Control
Would you please tag the item True when its BUN is 10 mg/dL or above, and False when it is below?

Here's what some known entries look like.
COMPOUND	CLASS_NAME
O=C(OC[C@H]1O[C@@H](OC(=O)c2cc(O)c(O)c(OC(=O)c3cc(O)c(O)c(O)c3)c2)[C@H](OC(=O)c2cc(O)c(O)c(OC(=O)c3cc(O)c(O)c(O)c3)c2)[C@@H](OC(=O)c2cc(O)c(O)c(OC(=O)c3cc(O)c(O)c(O)c3)c2)[C@@H]1OC(=O)c1cc(O)c(O)c(OC(=O)c2cc(O)c(O)c(O)c2)c1)c1cc(O)c(O)c(OC(=O)c2cc(O)c(O)c(O)c2)c1 [TANNIC ACID]	True
CN1C(=O)CCS(=O)(=O)C1c1ccc(Cl)cc1 (stereo not drawn) [CHLORMEZANONE]	True
Brc1ccccc1 [BROMOBENZENE]	False
CC(C)NNC(=O)c1ccncc1 [IPRONIAZID]	True

Now, please, on to the next compound.
Prompt line: Please check the record CCOc1ccc(NC(C)=O)cc1 [PHENACETIN] and state if its BUN is at or above 10 mg/dL.
Response line: False
